Where do these numbers come from? They come from patent US20250011456A1.

# TARGET ENTITY: T1, recombinant human CD14 (B294801, histidine tagged) (Homo sapiens, UniProt P08571)
# T1 construct: His; purchased Shanghai BaiYing Biotechnology Co., Ltd B294801 (Batch number 20200518A22)
# T1 sequence (P08571 20-345): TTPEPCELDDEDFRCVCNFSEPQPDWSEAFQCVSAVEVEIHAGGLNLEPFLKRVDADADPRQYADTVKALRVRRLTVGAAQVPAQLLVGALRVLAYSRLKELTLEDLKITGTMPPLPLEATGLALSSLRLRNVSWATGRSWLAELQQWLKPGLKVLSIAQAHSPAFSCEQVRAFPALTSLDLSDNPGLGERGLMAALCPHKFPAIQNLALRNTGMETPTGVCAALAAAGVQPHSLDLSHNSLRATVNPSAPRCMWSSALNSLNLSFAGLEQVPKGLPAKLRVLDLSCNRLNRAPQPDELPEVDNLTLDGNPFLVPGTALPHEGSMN
# ASSAY PROCEDURE: Biacore 8K kinetic and affinity test of humanized antibodies (Example 8)
# Format: binding
# TEST CONTEXT: Biacore 8K, analyte B294801 0.78125-25 nM, capture 1 μg/mL
READOUT LABEL: kon (1:1 binding) (M⁻¹ s⁻¹)
Numbers only; they are read as M⁻¹ s⁻¹.

Data request: Give the reported kon (1:1 binding) for this molecule. D6DD3D013: humanized anti-CD14 antibody; VH SEQ ID NO: 49, VL SEQ ID NO: 51 (antibody, V domains shown) VH: QVQLQESGPGLVKPSETLSLTCTVSGGSISSDSAWNWIRQPPGKGLEWIGYISYSGSTSYNPSLKSRVTISRDTSKNQFSLKLSSVTAADTAVYYCVRGLRFAYWGQGTLVTVSS VL: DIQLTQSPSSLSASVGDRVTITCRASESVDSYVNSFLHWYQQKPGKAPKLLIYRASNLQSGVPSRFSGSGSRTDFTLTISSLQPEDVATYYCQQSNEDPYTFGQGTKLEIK
Data returned: 1.76e+06

Data request: Give the reported kon (1:1 binding) for this molecule. D6DD3D015: humanized anti-CD14 antibody; VH SEQ ID NO: 57, VL SEQ ID NO: 59 (antibody, V domains shown) VH: QVQLQESGPGLVKPSETLSLTCTVSGYSITSDSAWNWIRQPPGKGLEWIGYISYSGSTSYNPSLKSRVTISRDTSKNQFSLKLSSVTAADTAVYYCVRGLRFAYWGQGTLVTVSS VL: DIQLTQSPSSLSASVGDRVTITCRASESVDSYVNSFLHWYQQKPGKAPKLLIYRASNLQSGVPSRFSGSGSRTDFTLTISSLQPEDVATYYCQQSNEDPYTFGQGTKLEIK
Data returned: 1.59e+06

Data request: Give the reported kon (1:1 binding) for this molecule. D6DD3D010: humanized anti-CD14 antibody; VH SEQ ID NO: 37, VL SEQ ID NO: 39 (antibody, V domains shown) VH: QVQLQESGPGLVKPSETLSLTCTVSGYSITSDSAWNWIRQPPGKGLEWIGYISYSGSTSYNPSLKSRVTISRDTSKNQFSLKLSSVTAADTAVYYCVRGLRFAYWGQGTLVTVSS VL: DIVLTQSPDSLAVSLGERATINCRASESVDSYVNSFLHWYQQKPGQPPKLLIYRASNLQSGVPDRFSGSGSRTDFTLTISSLQAEDVAVYYCQQSNEDPYTFGQGTKLEIK
Data returned: 1.9e+06

Data request: Give the reported kon (1:1 binding) for this molecule. D6DD3D007: humanized anti-CD14 antibody; VH SEQ ID NO: 25, VL SEQ ID NO: 27 (antibody, V domains shown) VH: QVQLQESGPGLVKPSQTLSLTCTVSGGSISSDSAWNWIRQHPGKGLEWIGYISYSGSTSYNPSLKSRVTISRDTSKNQFSLKLSSVTAADTAVYYCVRGLRFAYWGQGTLVTVSS VL: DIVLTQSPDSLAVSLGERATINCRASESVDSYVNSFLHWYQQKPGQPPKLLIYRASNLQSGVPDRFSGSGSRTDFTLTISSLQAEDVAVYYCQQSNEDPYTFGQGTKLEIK
Data returned: 2.11e+06
